- Tested on: CSNK1A1L
- experimental-context: concentration: 1 μM, replicates: in singlicate; n = 1;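 note: KINOMEscan kinase panel screen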
Reported %Inh values are given for each entry in this list.
measured-endpoint: %Inh (%)

| molecule | measured-endpoint | units-label | meas-value |
| --- | --- | --- | --- |
| CN(c1ccc(NC(=O)N2CCN(CCCN3CCOCC3)CC2)cc1)c1ccnc(Nc2ccc(CS(C)(=O)=O)cc2)n1.Cl [GW830899] | %Inh | % | 79 |
| Cn1cc(-c2ccc3c(c2)CCN3C(=O)Cc2cc(F)cc(F)c2F)c2c(N)ncnc21 [GSK2634140] | %Inh | % | 17 |
| CC(C)NCC(Cc1ccccc1)NC(=O)c1cc(Br)c(-c2ccnc3[nH]ccc23)s1.Cl.Cl (stereo not shown) [GSK1383281] | %Inh | % | 5 |
| Cc1cccc(Nc2nc(NCCN)ncc2C(N)=O)c1 [GSK1292139] | %Inh | % | 76 |
| CC(=O)Nc1cn2nc(Oc3cccc(NC(=O)c4cccc(C(F)(F)F)c4)c3)ccc2n1 | %Inh | % | 21 |
| CN1CCN(Cc2ccc(NC(=O)Nc3ccc(N(C)c4ccnc(Nc5ccc(CS(C)(=O)=O)cc5)n4)cc3)cc2)CC1.Cl [GW827654] | %Inh | % | 0 |
| Cc1ccc(Nc2ccnc(Nc3ccc(C)c(F)c3)n2)cc1O.Cl [GW582868] | %Inh | % | 12 |
| O=C(Nc1n[nH]c2nc(-c3cccc(O)c3)ccc12)C1CC1 [SB-711805] | %Inh | % | 6 |
| Cc1ccc(NC(=O)c2cccc(N3CCCCC3)c2)cc1-c1ccc(C(=O)NCC2CC2)cc1 [GSK1917008] | %Inh | % | 18 |
| Cc1ccccc1CC(=O)N1CCc2cc(-c3cn(C)c4ncnc(N)c34)ccc21 [GSK2603346] | %Inh | % | 22 |

====

- Tested on: PIK3CB
- experimental-context: concentration: 1 μM, replicates: in singlicate; n = 1

| molecule | %Inh, % |
| --- | --- |
| CN(c1ccc(NC(=O)Nc2cccc(Cl)c2)cc1)c1ccnc(N)n1.Cl | 20 |
| CN(C)c1ncnc2nc[nH]c12 | 0 |
| Cl.N#CCc1ccc(Nc2nccc(Nc3ccc(Oc4ccccc4)cc3)n2)cc1 | 0 |
| CN(c1ccc(NC(=O)N2CCN(CCCN3CCOCC3)CC2)cc1)c1ccnc(Nc2ccc(CS(C)(=O)=O)cc2)n1.Cl | 0 |
| CN1CCN(Cc2ccc(NC(=O)Nc3ccc(N(C)c4ccnc(Nc5ccc(CS(C)(=O)=O)cc5)n4)cc3)cc2)CC1.Cl | 16 |
| Cc1cccc(Nc2nc(NCCN)ncc2C(N)=O)c1 | 0 |

====

Reported %Inh values are given for each entry in this list.
- Tested on: PYK2
- Construct: gene PTK2B
- experimental-context: concentration: 1 μM, replicates: in singlicate; n = 1

| compound | target-desc | units-label | %Inh |
| --- | --- | --- | --- |
| Cc1ccccc1CC(=O)N1CCc2cc(-c3cn(C)c4ncnc(N)c34)ccc21 [GSK2603346] | PYK2 | % | 0 |
| N#Cc1cnc2cc(-c3cnc(CNCCN4CCOCC4)s3)ccc2c1Nc1ccc(Oc2ccccc2)cc1 [GW664114] | PYK2 | % | 4 |
| CN1CCN(Cc2ccc(NC(=O)Nc3ccc(N(C)c4ccnc(Nc5ccc(CS(C)(=O)=O)cc5)n4)cc3)cc2)CC1.Cl [GW827654] | PYK2 | % | 88 |
| Cl.Cl.NCC(NC(=O)c1cc(-c2cccnc2)c(-c2ccnc3[nH]ccc23)s1)c1ccccc1 (centres unmarked) [GSK1323434] | PYK2 | % | 10 |
| CN(c1ccc2c(c1)nc(NCc1ccccc1)n2C)c1ccnc(Nc2ccc(CS(C)(=O)=O)cc2)n1.Cl [GW811603] | PYK2 | % | 21 |
| COc1ccc(C2=C(Nc3cccc(O)c3)C(=O)NC2=O)cc1 [SB-390766] | PYK2 | % | 0 |
| NCCC(NC(=O)c1cc(Br)c(-c2ccnc3[nH]ccc23)s1)c1ccccc1.O=C(O)C(F)(F)F.O=C(O)C(F)(F)F (centres unmarked) [GSK1307810] | PYK2 | % | 0 |
| CCn1cnc2c(NCc3ccccc3)ncnc21 [SKF-96418] | PYK2 | % | 0 |
| CSc1ccc(NC2=C(c3ccc(Cl)cc3)C(=O)NC2=O)cc1 [SB-317658] | PYK2 | % | 0 |
| COC(=O)Nc1nc2ccc(Oc3ccc(CC(=O)Nc4cc(C(F)(F)F)ccc4F)cc3)cc2[nH]1 [GW680903] | PYK2 | % | 0 |
| COc1cccc(-c2nc(-c3ccccc3)[nH]c2-c2ccncc2)c1 [SB-610250] | PYK2 | % | 0 |
| Cc1ccc(O)cc1Nc1ccnc2cc(-c3ccc(CN4CCCCC4)o3)ccc12 [GW557777] | PYK2 | % | 5 |
| CCNC(=O)/C=C/c1n[nH]c2cc(Sc3ccccc3C(=O)NC)ccc12 | PYK2 | % | 0 |
| Cn1cc(-c2ccc3c(c2)CCN3C(=O)Cc2cc(F)cc(C(F)(F)F)c2)c2c(N)ncnc21 [GSK2635225] | PYK2 | % | 0 |
| Cc1cc(-c2ccnc(Nc3cccc(C#N)c3)n2)cc(C)c1O [GSK1440913] | PYK2 | % | 27 |
| COc1cccc2c(-c3ccncc3)c(-c3ccc(F)cc3)nn12 [GW468513] | PYK2 | % | 12 |
| Cc1ccc(C)c(NC(=O)Nc2ccc(C)c(-c3ccc(C(=O)Nc4ccncc4)cc3)c2)c1 [GSK1398473] | PYK2 | % | 0 |

====

- Tested on: SGK2
- experimental-context: concentration: 1 μM, replicates: in singlicate; n = 1
Reported %Inh values are given for each entry in this list.
measured-endpoint: %Inh (%)

| compound | meas-value |
| --- | --- |
| CCNc1nccc(-c2c(-c3ccc(F)cc3)ncn2C2CCN(C)CC2)n1 | 5 |
| Cl.O=C(Nc1ccc(Oc2ccc3[nH]c(NC(=O)c4ccco4)nc3c2)cc1)Nc1cc(C(F)(F)F)ccc1F [GW683134] | 14 |
| Cc1cc(-c2c(-c3ccc(F)cc3)ncn2CCCN2CCOCC2)nc(N)n1 [SB-222517] | 0 |
| Nc1ncc(-c2ccc3nccc(-c4ccncc4)c3c2)cc1S(=O)(=O)N1CCCCC1 [GSK1693850] | 0 |
| CN(c1ccc(F)c(NC(=O)c2cccc(OC(C)(C)C#N)c2Cl)c1)c1ccc2nc(NC(=O)C3CC3)sc2n1 | 0 |

====

- System: LTK
- experimental-context: concentration: 1 μM, replicates: in singlicate; n = 1

| molecule | %Inh |
| --- | --- |
| Cc1ccc(NC(=O)c2cccc(N3CCCCC3)c2)cc1-c1ccc(C(=O)NCC2CC2)cc1 | 7% |
| CN(c1ccc(NC(=O)Nc2cccc(Cl)c2)cc1)c1ccnc(N)n1.Cl | 12% |
| CN1CCN(Cc2ccc(NC(=O)Nc3ccc(N(C)c4ccnc(Nc5ccc(CS(C)(=O)=O)cc5)n4)cc3)cc2)CC1.Cl | 46% |
| NCCC(NC(=O)c1cc(Br)c(-c2ccnc3[nH]ccc23)s1)c1ccccc1.O=C(O)C(F)(F)F.O=C(O)C(F)(F)F (centres unmarked) | 0% |
| COC(=O)Nc1nc2ccc(Oc3ccc(NC(=O)Nc4cc(C(F)(F)F)ccc4F)cc3)cc2[nH]1.Cl | 63% |
| COc1cc(Nc2ccnc3cc(-c4ccncc4)ccc23)cc(OC)c1OC.Cl | 24% |
| Cn1cc(-c2ccc3c(c2)CCN3C(=O)Cc2cc(F)cc(C(F)(F)F)c2)c2c(N)ncnc21 | 18% |
| CNc1nccc(-c2ccc3c(N)n[nH]c3c2)n1 | 27% |

====

- Tested on: MLK1
- Construct: gene MAP3K9
- experimental-context: concentration: 1 μM, replicates: in singlicate; n = 1
Reported %Inh values are given for each entry in this list.

| compound | %Inh (%) |
| --- | --- |
| COc1cccc2c(-c3ccncc3)c(-c3ccc(F)cc3)nn12 [GW468513] | 0 |
| Cc1cccc(Nc2nc(NCCN)ncc2C(N)=O)c1 [GSK1292139] | 85 |
| O=C(Nc1n[nH]c2nc(-c3ccccc3)ccc12)C1CC1 [SB-708999] | 0 |
| Cc1cc(-c2c(-c3ccc(F)cc3)ncn2CCCN2CCOCC2)nc(N)n1 [SB-222517] | 5 |
| Fc1cc(Cl)ccc1Nc1ccnc2cc(-c3ccc(CN4CCOCC4)o3)ccc12 [GW560109] | 2 |
| CNc1nccc(-c2ccc3c(N)n[nH]c3c2)n1 [GSK2206003] | 4 |
| CS(=O)(=O)c1cccc(CNc2nc(Nc3ccc4c(c3)CCC(=O)N4)ncc2C(F)(F)F)c1 | 99.7 |
| CN(C)CCNS(=O)(=O)c1ccc(-c2ccnc3[nH]ccc23)cc1 [GSK977620] | 3 |
| O=C1NC(=O)C(c2ccccc2Cl)=C1Nc1cccc(Cl)c1 [SB-342409] | 0 |
| CN(C)c1ncnc2nc[nH]c12 [SKF-31736] | 0 |
| COc1ccc(C2=C(Nc3cccc(O)c3)C(=O)NC2=O)cc1 [SB-390766] | 0 |
| COc1cccc(CC(=O)N2CCc3cc(-c4cn(C)c5ncnc(N)c45)ccc32)c1 [GSK2608899] | 32 |
